Sourced from patent US20150361176A1

# Study System: T1, cynomolgus TGF-β RII/Fc (cynomolgus)
# T1 construct: extracellular domain; also called Cyno TGFBRII; Cyno TGFbRII
# Assay Details: SPR Biacore T200, receptor-Fc captured by anti-human IgG, dAb as analyte, 1:1 model
kon: recorded values
Kindly provide the numeric value in M⁻¹ s⁻¹ only, without the unit symbol.

DOM23h-439-40 (DOM23h-439-25 + C-terminal Alanine) (VHH, human VH dAb) VHH: EVQLLESGGGLVQPGGSLRLSCAASGFTFGTEQMWWVRQAPGKGLEFVSRIDSPGGRTYYADSVKGRFTISRDNSKNTLYLQMNSLRAEDTAVYYCAKRRPTGVSGTFYDYWGQGTLVTVSS	9.34e+06
DOM23h-439-41 (DOM23h-439-25 + C-terminal Alanine + 48I) (VHH, human VH dAb) VHH: EVQLLESGGGLVQPGGSLRLSCAASGFTFGTEQMWWVRQAPGKGLEFISRIDSPGGRTYYADSVKGRFTISRDNSKNTLYLQMNSLRAEDTAVYYCAKRRPTGVSGTFYDYWGQGTLVTVSS	1.57e+07
DOM23h-271-132 (DOM23h-271-123 + C-terminal Alanine + 64R) (VHH, human VH dAb) VHH: EVQLLESGGGLVQPGGSLRLSCAASGSTFTEYRMWWVRQAPGKGLEWVSAIEPIGHRTYYADSVRGRFTISRDNSKNTLYLQMNSLRAEDTAVYYCAKQAPGEKWARRWDLDYWGQGTLVTVSS	1.29e+07

Below: the item to evaluate.
Query: For the binder shown here, DOM23h-439-43 (DOM23h-439-25 + C-terminal Alanine + 64R) (VHH, human VH dAb) VHH: EVQLLESGGGLVQPGGSLRLSCAASGFTFGTEQMWWVRQAPGKGLEFVSRIDSPGGRTYYADSVRGRFTISRDNSKNTLYLQMNSLRAEDTAVYYCAKRRPTGVSGTFYDYWGQGTLVTVSS , give the reported kon.
Result: 8.04e+06
